FYI, the data here is from ChEMBL document CHEMBL1157909.

- TARGET: Anthranilate synthase component 1 (Salmonella typhimurium (strain LT2 / SGSC1412 / ATCC 700720))
- TEST_SUMMARY: Inhibition of Salmonella Typhimurium anthranilate synthase trpE:trpD […] coexpressing stop codon in trpD gene for encoding aminotransferase activity by spectrophotometry for enzyme-inhibitor complex
- Parameters: species or system Salmonella enterica subsp. enterica serovar Typhimurium
PROPERTY: Ki
For clarity, give the value followed by its unit.

# annotated cases, reported Ki shown
NC(=O)C1(NC(=O)[C@H](CCCNC(=O)c2cccc(OCC(=O)O)c2)NC(=O)c2ccc(Oc3ccccc3)cc2)CCS(=O)(=O)CC1    570 µM
NC(=O)C1(NC(=O)[C@H](CCCNC(=O)c2cccc(OCC(=O)O)c2)NC(=O)c2ncccc2C(=O)c2ccccc2)CCCCC1    490 µM
Cc1ccc(C(=O)N[C@@H](CCCNC(=O)c2cccc(OCC(=O)O)c2)C(=O)N[C@@H](Cc2cccc(Cl)c2)C(N)=O)c([N+](=O)[O-])c1O    41 µM

Here is the next item to consider.
Fill in the blank: the reported Ki of NC(=O)c1cccc(OCC(=O)O)c1 is ____. 760 µM

----------
- TARGET: Anthranilate synthase component 1 (Salmonella typhimurium (strain LT2 / SGSC1412 / ATCC 700720), UniProt P00898)
- Sequence (P00898 whole entry): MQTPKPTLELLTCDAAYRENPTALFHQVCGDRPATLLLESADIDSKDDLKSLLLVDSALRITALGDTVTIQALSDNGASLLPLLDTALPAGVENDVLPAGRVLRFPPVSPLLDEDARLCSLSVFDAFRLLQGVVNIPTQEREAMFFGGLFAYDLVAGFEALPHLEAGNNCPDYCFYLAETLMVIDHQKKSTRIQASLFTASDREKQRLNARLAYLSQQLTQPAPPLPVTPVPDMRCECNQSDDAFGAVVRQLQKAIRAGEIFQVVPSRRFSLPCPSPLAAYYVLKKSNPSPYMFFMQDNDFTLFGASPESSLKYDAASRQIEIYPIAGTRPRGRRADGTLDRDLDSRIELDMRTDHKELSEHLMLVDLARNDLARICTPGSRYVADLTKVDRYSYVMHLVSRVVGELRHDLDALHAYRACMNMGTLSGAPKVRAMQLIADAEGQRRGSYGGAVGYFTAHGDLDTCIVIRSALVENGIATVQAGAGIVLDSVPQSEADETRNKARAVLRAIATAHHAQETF
- TEST_SUMMARY: Inhibition of Salmonella Typhimurium anthranilate synthase trpE:trpD […] coexpressing stop codon in trpD gene for encoding aminotransferase activity by spectrophotometry for enzyme-inhibitor complex
- Set-up: species or system Salmonella enterica subsp. enterica serovar Typhimurium
Recorded measurements of Ki, one per entry
For clarity, give the value followed by its unit.

Cc1ccc(C(=O)N[C@@H](CCCCNC(=O)c2cccc(OCC(=O)O)c2)C(=O)N[C@@H](Cc2cccc(Cl)c2)C(N)=O)c([N+](=O)[O-])c1O    20 µM

Fill in the blank: the reported Ki of O=C(O)COc1cccc(C(=O)O)c1 is ____. 210 µM

Fill in the blank: the reported Ki of Cc1ccc(C(=O)N[C@@H](CSCCCNC(=O)c2cccc(OCC(=O)O)c2)C(=O)N[C@@H](Cc2cccc(Cl)c2)C(N)=O)c([N+](=O)[O-])c1O is ____. 96 µM

Fill in the blank: the reported Ki of Cc1ccc(C(=O)N[C@@H](C)C(=O)N[C@@H](Cc2cccc(Cl)c2)C(N)=O)c([N+](=O)[O-])c1O is ____. 200 µM

Fill in the blank: the reported Ki of Cc1ccc(C(=O)N[C@@H](CCCCN)C(=O)N[C@@H](Cc2cccc(Cl)c2)C(N)=O)c([N+](=O)[O-])c1O is ____. 110 µM

Fill in the blank: the reported Ki of Cc1ccc(C(=O)N[C@@H](CCCNC(=O)c2cccc(OCC(=O)O)c2)C(=O)N[C@@H](Cc2ccc(C#N)cc2)C(N)=O)c([N+](=O)[O-])c1O is ____. 28 µM

Fill in the blank: the reported Ki of CC(C(=O)N[C@@H](CCCNC(=O)c1cccc(OCC(=O)O)c1)C(=O)NCCc1cccc2c1oc1c(CCC(N)=O)cccc12)c1ccc([N+](=O)[O-])cc1 (some centres not stated) is ____. 250 µM

----------
- TARGET: Isochorismate synthase EntC (Escherichia coli K-12)
- Sequence (P0AEJ2 whole entry): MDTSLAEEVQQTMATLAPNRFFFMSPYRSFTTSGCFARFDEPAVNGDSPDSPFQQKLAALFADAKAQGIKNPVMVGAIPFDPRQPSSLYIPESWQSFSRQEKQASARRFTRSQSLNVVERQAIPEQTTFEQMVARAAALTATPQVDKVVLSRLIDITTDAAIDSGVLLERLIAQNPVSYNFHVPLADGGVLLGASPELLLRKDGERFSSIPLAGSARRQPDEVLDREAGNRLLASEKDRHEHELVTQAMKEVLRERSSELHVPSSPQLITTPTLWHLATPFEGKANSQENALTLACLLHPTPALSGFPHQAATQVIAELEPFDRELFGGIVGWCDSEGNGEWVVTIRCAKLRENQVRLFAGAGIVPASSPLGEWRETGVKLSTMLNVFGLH
- TEST_SUMMARY: Competitive inhibition of Escherichia coli K12 IS expressed in Escherichia coli BL21(DE3) using chorismate as substrate by double reciprocal plot
Activity calls are given as the source filed them. No cut-off for these calls is given here.
PROPERTY: Activity

NC(=O)C1(NC(=O)[C@H](CCCNC(=O)c2cccc(OCC(=O)O)c2)NC(=O)c2ncccc2C(=O)c2ccccc2)CCCCC1    Active
O=C(O)COc1cccc(C(=O)O)c1    Active
Cc1ccc(C(=O)N[C@@H](CCCCN)C(=O)N[C@@H](Cc2cccc(Cl)c2)C(N)=O)c([N+](=O)[O-])c1O    Active
Cc1ccc(C(=O)N[C@@H](CCCNC(=O)c2cccc(OCC(=O)O)c2)C(=O)N[C@@H](Cc2cccc(Cl)c2)C(N)=O)c([N+](=O)[O-])c1O    Active

----------
Assay read-out pKi; system under study: UniProt:P0AEJ2.
By convention, pKi is the negative base-10 log of a molar concentration.

# annotated cases, reported pKi shown
NC(=O)C1(NC(=O)[C@H](CCCNC(=O)c2cccc(OCC(=O)O)c2)NC(=O)c2ccc(Oc3ccccc3)cc2)CCS(=O)(=O)CC1    3.77
Cc1ccc(C(=O)N[C@@H](CCCNC(=O)c2cccc(OCC(=O)O)c2)C(=O)N[C@@H](Cc2ccc(C#N)cc2)C(N)=O)c([N+](=O)[O-])c1O    3.59
NC(=O)c1cccc(OCC(=O)O)c1    2.59
Cc1ccc(C(=O)N[C@@H](CCCCNC(=O)c2cccc(OCC(=O)O)c2)C(=O)N[C@@H](Cc2cccc(Cl)c2)C(N)=O)c([N+](=O)[O-])c1O    3.68
Cc1ccc(C(=O)N[C@@H](CCCNC(=O)c2cccc(OCC(=O)O)c2)C(=O)N[C@@H](Cc2cccc(Cl)c2)C(N)=O)c([N+](=O)[O-])c1O    3.44

// lookup pKi | system=UniProt:P0AEJ2 | key= NC(=O)C1(NC(=O)[C@H](CCCNC(=O)c2cccc(OCC(=O)O)c2)NC(=O)c2ncccc2C(=O)c2ccccc2)CCCCC1 3.37

// lookup pKi | system=UniProt:P0AEJ2 | key= O=C(O)COc1cccc(C(=O)O)c1 2.89

// lookup pKi | system=UniProt:P0AEJ2 | key= CC(C(=O)N[C@@H](CCCNC(=O)c1cccc(OCC(=O)O)c1)C(=O)NCCc1cccc2c1oc1c(CCC(N)=O)cccc12)c1ccc([N+](=O)[O-])cc1 (stereo partly drawn) 3.72

----------
- TARGET: Anthranilate synthase component 1 (Salmonella typhimurium (strain LT2 / SGSC1412 / ATCC 700720), UniProt P00898)
- TEST_SUMMARY: Inhibition of Salmonella Typhimurium anthranilate synthase trpE:trpD […] coexpressing stop codon in trpD gene for encoding aminotransferase activity by spectrophotometry for enzyme-substrate-inhibitor complex
- Design: species or system Salmonella enterica subsp. enterica serovar Typhimurium
PROPERTY: Ki (µM)
Please state the figure in µM; there is no need to write the unit.

# annotated cases, reported Ki shown
NC(=O)C1(NC(=O)[C@H](CCCNC(=O)c2cccc(OCC(=O)O)c2)NC(=O)c2ncccc2C(=O)c2ccccc2)CCCCC1    1080
CC(C(=O)N[C@@H](CCCNC(=O)c1cccc(OCC(=O)O)c1)C(=O)NCCc1cccc2c1oc1c(CCC(N)=O)cccc12)c1ccc([N+](=O)[O-])cc1 (some centres not stated)    110
NC(=O)c1cccc(OCC(=O)O)c1    2600
Cc1ccc(C(=O)N[C@@H](CCCNC(=O)c2cccc(OCC(=O)O)c2)C(=O)N[C@@H](Cc2ccc(C#N)cc2)C(N)=O)c([N+](=O)[O-])c1O    81
Cc1ccc(C(=O)N[C@@H](CCCCNC(=O)c2cccc(OCC(=O)O)c2)C(=O)N[C@@H](Cc2cccc(Cl)c2)C(N)=O)c([N+](=O)[O-])c1O    54
NC(=O)C1(NC(=O)[C@H](CCCNC(=O)c2cccc(OCC(=O)O)c2)NC(=O)c2ccc(Oc3ccccc3)cc2)CCS(=O)(=O)CC1    1020

Fill in the blank: the reported Ki of O=C(O)COc1cccc(C(=O)O)c1 is ____. 550
